Assayed target: Cdk9/cyclinT1 (Homo sapiens (Human))
Experimental details: Cdk9/CyclinT1 IMAP Protocol (fluorescence polarization kinase assay)
Condition set: Table 2; generated using one of the two Cdk9/cyclinT1 assays (IMAP or Alpha Screen), not specified which; unit inferred
In this section we review reported IC50 values for a set of molecules.
Express the result in nM but write the number alone.

| Molecule | Assayed target | Recorded value |
| --- | --- | --- |
| CC(C)CN1CCC(Nc2cc(-c3cccc(NCc4cccc(F)c4)n3)c(Cl)cn2)CC1 [Compound 102] | Cdk9/cyclinT1 (Homo sapiens (Human)) | 121 |
| CN1CCC[C@H]1C(=O)NC[C@H]1CC[C@H](Nc2cc(-c3cccc(NCc4cccc(F)c4)n3)c(Cl)cn2)CC1 [Compound 83] | Cdk9/cyclinT1 (Homo sapiens (Human)) | 11.6 |
| Cc1ncc(-c2cc(N[C@H]3CC[C@H](N)CC3)ncc2Cl)nc1NCC1CCOCC1 [Compound 231] | Cdk9/cyclinT1 (Homo sapiens (Human)) | 14.9 |

Okay, now this molecule:
The molecule CNC[C@H]1CC[C@H](Nc2cc(-c3cccc(NCc4cccc(F)c4)n3)c(Cl)cn2)CC1 [Compound 22] , when measured on Cdk9/cyclinT1 (Homo sapiens (Human)), yielded IC50 of 7.95

###

Assayed target: Cdk9/cyclinT1 (Homo sapiens (Human), UniProt P50750)
Sequence (P50750 whole entry): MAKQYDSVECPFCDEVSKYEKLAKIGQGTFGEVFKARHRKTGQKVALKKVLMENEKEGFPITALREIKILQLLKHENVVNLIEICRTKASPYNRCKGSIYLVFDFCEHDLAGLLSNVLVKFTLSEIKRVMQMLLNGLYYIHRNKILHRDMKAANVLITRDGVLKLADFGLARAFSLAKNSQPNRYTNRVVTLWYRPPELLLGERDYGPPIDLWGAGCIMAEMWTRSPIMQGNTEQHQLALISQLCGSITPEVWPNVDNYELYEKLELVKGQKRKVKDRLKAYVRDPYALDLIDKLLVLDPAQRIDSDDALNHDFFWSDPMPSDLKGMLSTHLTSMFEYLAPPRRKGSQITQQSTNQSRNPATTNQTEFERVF
Sequence (O60563 whole entry partner): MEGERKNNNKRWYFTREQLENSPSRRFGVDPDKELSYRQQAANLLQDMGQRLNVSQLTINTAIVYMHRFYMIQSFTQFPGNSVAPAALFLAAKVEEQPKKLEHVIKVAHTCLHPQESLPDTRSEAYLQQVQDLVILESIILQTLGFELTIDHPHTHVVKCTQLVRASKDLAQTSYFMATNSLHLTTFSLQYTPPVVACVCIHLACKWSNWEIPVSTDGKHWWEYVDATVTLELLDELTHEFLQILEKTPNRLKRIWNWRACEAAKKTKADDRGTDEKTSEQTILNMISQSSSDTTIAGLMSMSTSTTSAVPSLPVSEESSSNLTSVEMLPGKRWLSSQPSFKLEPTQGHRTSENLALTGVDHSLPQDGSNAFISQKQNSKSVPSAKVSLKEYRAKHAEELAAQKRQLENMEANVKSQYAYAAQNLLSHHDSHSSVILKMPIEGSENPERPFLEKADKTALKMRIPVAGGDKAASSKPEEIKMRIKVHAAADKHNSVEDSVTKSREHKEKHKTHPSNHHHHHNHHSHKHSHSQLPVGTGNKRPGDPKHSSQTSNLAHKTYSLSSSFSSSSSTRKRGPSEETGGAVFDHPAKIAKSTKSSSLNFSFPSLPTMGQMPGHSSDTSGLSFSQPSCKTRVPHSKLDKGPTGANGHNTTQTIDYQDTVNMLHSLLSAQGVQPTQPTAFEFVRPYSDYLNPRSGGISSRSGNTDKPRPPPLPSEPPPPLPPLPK
Experimental details: Cdk9/CyclinT1 IMAP Protocol (fluorescence polarization kinase assay)
Condition set: Table 2; generated using one of the two Cdk9/cyclinT1 assays (IMAP or Alpha Screen), not specified which; unit inferred
In this section we review reported IC50 values for a set of molecules.
Express the result in nM but write the number alone.

The molecule "Nc1ncc(-c2cc(N[C@H]3CC[C@H](N)CC3)ncc2Cl)nc1NCC1CCOCC1" , when measured on Cdk9/cyclinT1 (Homo sapiens (Human), UniProt P50750), yielded IC50 of 7.95

The molecule O=S1(=O)CCC(N[C@H]2CC[C@H](Nc3cc(-c4ccc(F)c(NCC5CCOCC5)n4)c(Cl)cn3)CC2)C1 (stereo partly drawn) , when measured on Cdk9/cyclinT1 (Homo sapiens (Human), UniProt P50750), yielded IC50 of 3

The molecule "CN1CCC[C@H]1C(=O)N[C@H]1CC[C@H](Nc2cc(-c3cccc(NCc4cccc(F)c4)n3)c(Cl)cn2)CC1" , when measured on Cdk9/cyclinT1 (Homo sapiens (Human), UniProt P50750), yielded IC50 of 31.7

###

Assayed target: Cdk9/cyclinT1 (Homo sapiens (Human), UniProt P50750)
Experimental details: Cdk9/CyclinT1 IMAP Protocol (fluorescence polarization kinase assay)
Condition set: Table 2; generated using one of the two Cdk9/cyclinT1 assays (IMAP or Alpha Screen), not specified which; unit inferred
With a cut-off of 8 nM, any IC50 strictly below it is called condition met; any IC50 meeting it or above is called condition not met.

Ask | Quick check: IC50 of CC(=O)N1CCC[C@@H](CNc2cccc(-c3ccnc(N[C@H]4CC[C@H](N)CC4)c3)n2)C1 [Compound 218] under 8 nM?
Reply | condition not met

Ask | Quick check: IC50 of Fc1cccc(CNc2cccc(-c3cc(N[C@H]4CCCNC4)ncc3Cl)n2)c1 [Compound 97] under 8 nM?
Reply | condition not met

Ask | Quick check: IC50 of Fc1ccc(-c2cc(N[C@H]3CC[C@H](NCC4CCO4)CC3)ncc2Cl)nc1NCC1CCOCC1 (stereo partly shown) [Compound 324] under 8 nM?
Reply | condition met

Ask | Quick check: IC50 of C[C@H]1C[C@@H](Nc2cc(-c3cccc(NCc4cccc(F)c4)n3)c(Cl)cn2)CC[C@@H]1N (stereo in doubt) [Compound 152] under 8 nM?
Reply | condition not met

Ask | Quick check: IC50 of CN(C)CC(=O)N1CCC(Nc2cc(-c3cccc(NCc4cccc(F)c4)n3)c(Cl)cn2)CC1 [Compound 85] under 8 nM?
Reply | condition not met

###

Assayed target: Cdk9/cyclinT1 (Homo sapiens (Human))
Experimental details: Cdk9/CyclinT1 IMAP Protocol (fluorescence polarization kinase assay)
Condition set: Table 2; generated using one of the two Cdk9/cyclinT1 assays (IMAP or Alpha Screen), not specified which; unit inferred
pIC50: −log10 of the molar value.
Mark Not fulfilled for pIC50 values under 8, and Fulfilled for everything at or above.

Study these solved cases before continuing.
| Compound | Assayed target | Assigned category |
| --- | --- | --- |
| CC1(C)CC(CNc2ccc(Cl)c(-c3cc(N[C@H]4CC[C@H](O)CC4)ncc3Cl)n2)CCO1 (stereo partly shown) | Cdk9/cyclinT1 (Homo sapiens (Human)) | Fulfilled |
| CC1(C)CC(CNc2ccc(Cl)c(-c3cc(N[C@H]4CC[C@H](NC[C@@H](O)C(F)(F)F)CC4)ncc3Cl)n2)CCO1 (stereo partly shown) | Cdk9/cyclinT1 (Homo sapiens (Human)) | Fulfilled |
| CS(=O)(=O)CCN[C@H]1CC[C@H](Nc2cc(-c3ccc(F)c(NCC4CCOCC4)n3)c(Cl)cn2)CC1 | Cdk9/cyclinT1 (Homo sapiens (Human)) | Fulfilled |
| N[C@H]1CC[C@H](Nc2cc(-c3cccc(NCc4ccncc4)n3)ccn2)CC1 | Cdk9/cyclinT1 (Homo sapiens (Human)) | Not fulfilled |
| CC(C)(C)OC(=O)N1CCC(Nc2cc(-c3cccc(NCc4cccc(F)c4)n3)c(Cl)cn2)CC1 | Cdk9/cyclinT1 (Homo sapiens (Human)) | Not fulfilled |

Ask | Please tell me: is the compound "Clc1cnc(N[C@H]2CCCNC2)cc1-c1cccc(NCc2ccncc2)n1" at or over 8 in terms of pIC50?
Reply | Not fulfilled

###

Assayed target: Cdk9/cyclinT1 (Homo sapiens (Human), UniProt P50750)
Experimental details: Cdk9/CyclinT1 IMAP Protocol (fluorescence polarization kinase assay)
Condition set: Table 2; generated using one of the two Cdk9/cyclinT1 assays (IMAP or Alpha Screen), not specified which; unit inferred
Measured quantity: IC50 (nM)
Express the result in nM but write the number alone.

Worked set:
| Smiles string | IC50, nM |
| --- | --- |
| N[C@H]1CC[C@H](Nc2cc(-c3cccc(NCC4CCCCCC4)n3)c(Cl)cn2)CC1 | 13.5 |
| Nc1ncc(CNc2cccc(-c3cc(N[C@H]4CC[C@H](N)CC4)ncc3Cl)n2)cn1 | 15.8 |
| COCCN[C@H]1CC[C@H](Nc2cc(-c3cccc(NCc4cccc(F)c4)n3)c(Cl)cn2)CC1 | 7.9 |

Okay, now this compound:
Per the record, "N[C@H]1CC[C@H](Nc2cc(-c3cccc(NCc4cccnc4)n3)c(Cl)cn2)CC1" has IC50 of 16.3

###

In this section we review reported pIC50 values for a set of compounds.
Assayed target: Cdk9/cyclinT1 (Homo sapiens (Human), UniProt P50750)
Experimental details: Cdk9/CyclinT1 IMAP Protocol (fluorescence polarization kinase assay)
Condition set: Table 2; generated using one of the two Cdk9/cyclinT1 assays (IMAP or Alpha Screen), not specified which; unit inferred
Scale explanation: pIC50 corresponds to minus log10 of a concentration expressed in moles per litre.

| Compound | Assayed target | Recorded value |
| --- | --- | --- |
| CC(=O)NCCNc1cccc(-c2cc(N[C@H]3CC[C@H](O)CC3)ncc2Cl)n1 | Cdk9/cyclinT1 (Homo sapiens (Human), UniProt P50750) | 6.93 |

Per the record, "N#Cc1ccc(-c2cc(N[C@H]3CC[C@H](N)CC3)ncc2Cl)nc1NCc1cccc(F)c1" has pIC50 of 8.10

Per the record, "NC(=O)c1cc(NCc2cccc(F)c2)nc(-c2cc(N[C@H]3CC[C@H](N)CC3)ncc2Cl)c1" has pIC50 of 7.63

Per the record, COC[C@@H](C)N[C@H]1CC[C@H](Nc2cc(-c3cccc(NCC4COC(C)(C)CO4)n3)c(Cl)cn2)CC1 (stereo partly shown) has pIC50 of 8.10

###

Assayed target: Cdk9/cyclinT1 (Homo sapiens (Human))
Experimental details: Cdk9/CyclinT1 IMAP Protocol (fluorescence polarization kinase assay)
Condition set: Table 2; generated using one of the two Cdk9/cyclinT1 assays (IMAP or Alpha Screen), not specified which; unit inferred
Description: Cdk9/CyclinT1 IMAP Protocol The biological activity of the compounds of the invention can be determined using the assay described below. Cdk9/cyclinT1 is purchased from Millipore, cat #14-685. The final total protein concentration in the assay 4 nM. […] Fluorescence polarization (FP) is used for detection. […] The binding of the IMAP Progressive Binding Reagent changes the fluorescence polarization of the 5TAMRA-cdk7tide peptide which is measured at an excitation of 531 nm and FP emission of 595 nm. […]
In this section we review reported IC50 values for a set of molecules.
Express the result in nM but write the number alone.

| Molecule | Assayed target | Measured quantity | Recorded value |
| --- | --- | --- | --- |
| COCCN[C@H]1CC[C@H](Nc2cc(-c3cncc(NCC4CCOCC4)n3)c(Cl)cn2)CC1 | Cdk9/cyclinT1 (Homo sapiens (Human)) | IC50 | 7.95 |
| Fc1ccc(CNc2cccc(-c3cc(NC4CCNCC4)ncc3Cl)n2)cc1F | Cdk9/cyclinT1 (Homo sapiens (Human)) | IC50 | 41.6 |
| NC[C@H]1CC[C@H](Nc2cc(-c3cccc(NCC4CCCCC4)n3)c(Cl)cn2)CC1 | Cdk9/cyclinT1 (Homo sapiens (Human)) | IC50 | 39.3 |
| CN(Cc1cccc(F)c1)c1cccc(-c2cc(N[C@H]3CC[C@H](N)CC3)ncc2Cl)n1 | Cdk9/cyclinT1 (Homo sapiens (Human)) | IC50 | 7.95 |
| NC[C@H]1CC[C@H](Nc2cc(-c3cccc(NCc4ccccc4)n3)c(Cl)cn2)CC1 | Cdk9/cyclinT1 (Homo sapiens (Human)) | IC50 | 32.6 |
| CN(C)CC(=O)N[C@H]1CC[C@H](Nc2cc(-c3cccc(NCc4cccc(F)c4)n3)c(Cl)cn2)CC1 | Cdk9/cyclinT1 (Homo sapiens (Human)) | IC50 | 24.8 |
| O[C@H]1CC[C@@H](Nc2cc(-c3cccc(NCC4CCOCC4)n3)c(Cl)cn2)CC1 | Cdk9/cyclinT1 (Homo sapiens (Human)) | IC50 | 146 |
| Fc1cccc(CNc2cccc(-c3cc(NCC[C@@H]4CCCNC4)ncc3Cl)n2)c1 | Cdk9/cyclinT1 (Homo sapiens (Human)) | IC50 | 18 |

Per the record, "OCCCNc1cc(-c2cccc(NCc3cc(F)cc(F)c3)n2)c(Cl)cn1" has IC50 of 7.94

Per the record, CC1(CNc2nc(-c3cc(NC4CCC(NC5CS(=O)(=O)C5)CC4)ncc3Cl)ccc2F)CCOCC1 (stereo not shown) has IC50 of 1

Per the record, "N[C@H]1CC[C@H](Nc2cc(-c3cccc(NCc4ccc(OC(F)(F)F)cc4)n3)c(Cl)cn2)CC1" has IC50 of 23.2

Per the record, "Fc1cc(F)cc(CNc2cccc(-c3cc(N[C@H]4CCCNC4)ncc3Cl)n2)c1" has IC50 of 416

Per the record, "Fc1cccc(CNc2cccc(-c3cc(NCC4CCNCC4)ncc3Cl)n2)c1" has IC50 of 14

Per the record, Clc1cnc(N[C@H]2CC[C@H](NCC3COCCO3)CC2)cc1-c1nc(NCC2CCOCC2)ccc1Cl (stereo partly shown) has IC50 of 7.94

Per the record, "N[C@H]1CC[C@H](Nc2cc(-c3cccc(NCc4cccc(Cl)c4)n3)c(Cl)cn2)CC1" has IC50 of 7.95
